# Measured On: human PD-L1 / human PD-1 interaction (Homo sapiens, UniProt Q9NZQ7)
# Construct: purchased R&D (PD-L1); ACRO Biosystems (PD-1, biotin)
# Sequence (Q9NZQ7 19-239 limits assumed): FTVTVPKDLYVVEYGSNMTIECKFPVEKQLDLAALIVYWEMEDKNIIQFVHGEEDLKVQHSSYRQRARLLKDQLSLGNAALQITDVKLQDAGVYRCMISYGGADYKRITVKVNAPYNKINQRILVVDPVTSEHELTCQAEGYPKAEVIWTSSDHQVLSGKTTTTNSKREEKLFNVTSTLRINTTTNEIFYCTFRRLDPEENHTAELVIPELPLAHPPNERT
# Assay Comment: ELISA of PD-1/PD-L1 interaction
# Type: binding
pIC50: −log10 of the molar value.
Measured Attribute: pIC50

Structure Smiles String	Value Observed
CC(C)OC(=O)[C@](C)(CO)NCc1cc(Cl)c(O[C@H]2CCc3c(-c4cccc(OCCCN5CC(O)C5)c4Cl)cccc32)cc1OCc1cncc(C#N)c1	> 8.30
N#Cc1cncc(COc2cc(O[C@H]3CCc4c(-c5cccc(OCCCN6CC7(CC(O)C7)C6)c5Cl)cccc43)c(Cl)cc2CN[C@@H]2CCC[C@@H]2O)c1	> 8.30
N#Cc1cncc(COc2cc(O[C@H]3CCc4c(-c5cccc(OCCCN6CC(O)C6)c5Cl)cccc43)c(Cl)cc2CN2CC[C@@H](O)C2)c1	> 8.30
N#Cc1cncc(COc2cc(O[C@H]3CCc4c(-c5cccc(OCCCN6CC(O)C6)c5Cl)cccc43)c(Cl)cc2CN2CC3(CC(O)C3)C2)c1	> 8.30
Cc1c(OCCCN2CCC(F)CC2)cccc1-c1cccc2c1CC[C@@H]2Oc1cc(OCc2cc(C#N)cc(C#N)c2)c(CN[C@@H]2CCC[C@H]2O)cc1Cl	> 8.30
N#Cc1cncc(COc2cc(O[C@H]3CCc4c(-c5cccc(OCCCN6CCC(F)CC6)c5Cl)cccc43)c(Cl)cc2CNC[C@@H]2CCC(=O)N2)c1	> 8.30
Cc1c(OCCCN2CCC[C@@H](O)C2)cccc1-c1cccc2c1CC[C@@H]2Oc1cc(OCc2cncc(C#N)c2)c(CN[C@H](C(=O)O)[C@@H](C)O)cc1Cl	> 8.30
N#Cc1cncc(COc2cc(O[C@H]3CCc4c(-c5cccc(OCCCN6CCNC(=O)C6)c5Cl)cccc43)c(Cl)cc2CNC2(C(=O)O)CCC2)c1	> 8.30
N#Cc1cncc(COc2cc(O[C@H]3CCc4c(-c5cccc(OCCCN6CC7(C6)CC(F)(F)C7)c5Cl)cccc43)c(Cl)cc2CN[C@@H]2CCCC[C@@H]2O)c1	> 8.30
CCOc1cc(O[C@H]2CCc3c(-c4cccc(OCCCN5CCC[C@@H]5C(C)C)c4C)cccc32)c(Cl)cc1CNC[C@@H]1CCC(=O)N1	> 8.30
Cc1c(OCCCN2CCC(O)CC2)cccc1-c1cccc2c1CC[C@@H]2Oc1cc(OCc2cncc(C#N)c2)c(CN2CC(C(=O)O)C2)cc1Cl	> 8.30
C[C@@H](O)[C@H](NCc1cc(Cl)c(O[C@H]2CCc3c(-c4cccc(OCCCN5CCC(O)CC5)c4Cl)cccc32)cc1OCc1cncc(C#N)c1)C(=O)O	> 8.30
CCOc1cc(O[C@H]2CCc3c(-c4cccc(OCCCN5CC6(CC(O)C6)C5)c4C)cccc32)c(Cl)cc1CN[C@@H](CO)C(=O)O	> 8.30
